Tested on: tubulin (colchicine site)
run_description: Inhibition of [3H]colchicine binding to tubulin
Set-up: species or system bovine
condition_info: tubulin 1 µM, [3H]colchicine 5 µM, compound 5 µM
reported_endpoint: Colchicine binding % ±SD (inhibition) (%)
Give bare numbers, in %.

Before answering, review these 4 worked examples.
* COc1ccc(/C=C\c2cc(OC)c(OC)c(OC)c2)cc1O [CA-4, combretastatin A-4, reference compound] | 98
* COC(=O)c1[nH]c2cc(OC)ccc2c1/C=C/C(=O)c1cc(OC)c(OC)c(OC)c1 | 29
* COC(=O)c1[nH]c2ccc(OC)cc2c1/C=C/C(=O)c1cc(OC)c(OC)c(OC)c1 | 5.3
* CCOC(=O)c1[nH]c2cc(OC)ccc2c1/C=C/C(=O)c1cc(OC)c(OC)c(OC)c1 | 23

Next item in the queue.
Any idea what its Colchicine binding % ±SD (inhibition) is? The molecule is `CCOC(=O)c1[nH]c2ccc(OC)cc2c1/C=C/C(=O)c1cc(OC)c(OC)c(OC)c1`
9.6
